This listing pairs sequences with measured PBM binding z-score.
- System: LXRa:RXRa (NR concentration 270 nM, RXRa partner concentration 90 nM)
- procedure text: PBM binding z-score (relative to random genomic background probes); higher = stronger binding; sequences stand for … in GC…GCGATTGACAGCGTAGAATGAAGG
measurement kind: PBM binding z-score

>>> measured_result("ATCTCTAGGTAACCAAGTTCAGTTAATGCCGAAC")
1.26
>>> measured_result("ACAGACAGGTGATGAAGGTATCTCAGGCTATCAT")
-0.162
>>> measured_result("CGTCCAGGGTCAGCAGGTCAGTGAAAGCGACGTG")
3.06
